Taken from ChEMBL document CHEMBL1125927.

assay: physchem; conditions: octanol/water, pH 7.4
Description: Partition coefficient (logD7.4)
Below, each of the compounds is paired with its reported logD value.
Simply state the number, no unit and no words.

Here is how some compounds turned out for logD.
[[record]]
given_smiles = "NS(=O)(=O)c1cc2cc(CNCCCCO)sc2s1"
test_value = -0.678

[[record]]
given_smiles = "COCCOCCN(CCOCCOC)Cc1cc2cc(S(N)(=O)=O)sc2s1.Cl"
test_value = 0.992

[[record]]
given_smiles = "Cl.NS(=O)(=O)c1cc2cc(CN3CCSCC3)sc2s1"
test_value = 1.14

[[record]]
given_smiles = "CC(C)CNCc1cc2cc(S(N)(=O)=O)sc2s1"
test_value = 0.924

[[record]]
given_smiles = "Cl.NS(=O)(=O)c1cc2cc(CN3CCOCC3)sc2s1"
test_value = 1.17


// sample Cl.NS(=O)(=O)c1cc2cc(CNCCF)sc2s1 , its logD was 0.702

// sample Cl.NS(=O)(=O)c1cc2cc(C(=O)NCCN3CCOCC3)sc2s1 , its logD was 0.587

// sample NS(=O)(=O)c1cc2cc(CNCC3CC3)sc2s1 , its logD was 0.398

// sample COCCN(CCOC)Cc1cc2cc(S(N)(=O)=O)sc2s1.Cl , its logD was 1.58

// sample Cl.NS(=O)(=O)c1cc2cc(C(=O)NCCN3CCSCC3)sc2s1 , its logD was 1.5

###

Each entry below carries its measured pKi, system: UniProt:P00918.
Field pKi (float): negative decimal logarithm of the concentration in molar.

Here is how some compounds turned out for pKi.
[[record]]
compound = "NS(=O)(=O)c1cc2cc(CNCC3CC3)sc2s1"
property_name = "pKi"
test_value = 8.17

[[record]]
compound = "CC(C)CNCc1cc2sc(S(N)(=O)=O)cc2s1.Cl"
property_name = "pKi"
test_value = 8.57

[[record]]
compound = "COCCNCc1cc2sc(S(N)(=O)=O)cc2s1.Cl"
property_name = "pKi"
test_value = 8.51

[[record]]
compound = "COCCN(CCOC)Cc1cc2cc(S(N)(=O)=O)sc2s1.Cl"
property_name = "pKi"
test_value = 8.87

[[record]]
compound = "Cl.NS(=O)(=O)c1cc2cc(CNCCF)sc2s1"
property_name = "pKi"
test_value = 8.70

[[record]]
compound = "Cl.NS(=O)(=O)c1cc2cc(C(=O)NCCN3CCSCC3)sc2s1"
property_name = "pKi"
test_value = 8.40

[[record]]
compound = "Cl.NS(=O)(=O)c1cc2cc(CN3CCSCC3)sc2s1"
property_name = "pKi"
test_value = 9.36


Here COCCOCCN(CCOC)C(Cc1ccc(F)cc1)c1cc2cc(S(N)(=O)=O)sc2s1 (stereo not drawn) was tested on UniProt:P00918, and its pKi came to 8.18
